Experimental Target: protein farnesyl transferase (Bos taurus, UniProt P29702+P49355)
Construct: partially purified from bovine brain by ion-exchange chromatography
Experiment Description: Inhibition of protein farnesyl transferase (dansyl-GCVLS fluorescence)
Applied Conditions: enzyme partially purified from bovine brain; 2 μM FPP, 2 μM dansyl GCVLS, 10 minutes at 37° C.; read-out: IC50 (PFTase)
Listing of entries alongside the reported IC50.
Property: IC50

> print(dat)
                                chem.smiles  value.reported
1  N#Cc1ccc(Cn2cncc2CN(C(=O)c2cccs2)c2ccc(N3CCN(C(=O)c4ccc(Cl)s4)CC3)cc2)cc1            1 nM
2  N#Cc1ccc(Cn2cncc2CN(C(=O)c2ccccc2F)c2ccc(N3CCN(C(=O)c4ccc(Cl)s4)CC3)cc2)cc1            2 nM
3  N#Cc1ccc(Cn2cncc2CN(c2ccc(N3CCN(C(=O)c4ccc(Cl)s4)CC3)cc2)S(=O)(=O)c2ccccc2C#N)cc1          0.9 nM
4  N#Cc1ccc(Cn2cncc2CN(C(=O)c2ccccc2Cl)c2ccc(N3CCN(C(=O)c4ccc(Cl)s4)CC3)cc2)cc1            2 nM

###

Experimental Target: protein farnesyl transferase (Bos taurus, UniProt P29702+P49355)
Construct: partially purified from bovine brain by ion-exchange chromatography
Experiment Description: Inhibition of protein farnesyl transferase (dansyl-GCVLS fluorescence)
Applied Conditions: enzyme partially purified from bovine brain; 2 μM FPP, 2 μM dansyl GCVLS, 10 minutes at 37° C.; read-out: IC50 (PFTase)
pIC50: −log10 of the molar value.
Property: pIC50

> print(dat)
                                chem.smiles  value.reported
1  N#Cc1ccc(Cn2cncc2CN(C(=O)c2ccc(C#N)cc2)c2ccc(N3CCN(C(=O)c4ccc(Cl)s4)CC3)cc2)cc1            8.70
2  N#Cc1ccc(Cn2cncc2CN(C(=O)c2cccc(F)c2)c2ccc(N3CCN(C(=O)c4ccc(Cl)s4)CC3)cc2)cc1            8.70
3  CCCNC(=O)N(Cc1cnc[nH]1)c1ccc(N2CCN(C(=O)c3ccc(Cl)s3)CC2)cc1            8.15

###

Experimental Target: GGPT I (Bos taurus, UniProt P29702+Q5EAD5)
Construct: GGPT I is partially purified from bovine brain by ion-exchange chromatography
Experiment Description: Inhibition of geranylgeranyl transferase protein I (3H-GGPP, RhoA-GST filter assay)
Applied Conditions: enzyme partially purified from bovine brain; 0.2 μM 3H-GGPP, 1 μM RhoA-GST, 45 minutes at 37° C.; read-out: IC50 (PGGTase)
Property: IC50 (nM)

> print(dat)
                                chem.smiles  value.reported
1  N#Cc1ccc(Cn2cncc2CN(C(=O)c2cccs2)c2ccc(N3CCN(C(=O)c4ccc(Cl)s4)CC3)cc2)cc1             700

###

Listing of entries alongside the reported IC50.
Experimental Target: protein farnesyl transferase (Bos taurus, UniProt P29702+P49355)
Construct: partially purified from bovine brain by ion-exchange chromatography
Experiment Description: Inhibition of protein farnesyl transferase (dansyl-GCVLS fluorescence)
Applied Conditions: enzyme partially purified from bovine brain; 2 μM FPP, 2 μM dansyl GCVLS, 10 minutes at 37° C.; read-out: IC50 (PFTase)
Source text: A) Evaluation of the Inhibition of Protein Famesyl Transferase: The famesylation of the dansylated peptide GCVLS, catalyzed with the enzyme protein famesyl transferase results in a change in the emission spectrum of the dansyl group, and especially an increase in the emission at 505 nm when the molecule is excited at 340 nm. When measured using the spectrofluorimeter, this emission is proportional to the activity of the enzyme (Pompliano et al., J. Am. Chem. Soc. 1992; 114: 7945-7946). […]
Property: IC50 (nM)

> print(dat)
                                chem.smiles  property  value.unit  value.reported
1  N#Cc1ccc(Cn2cncc2CN(C(=O)c2ccccc2)c2ccc(N3CCN(C(=O)c4ccc(Cl)s4)CC3)cc2)cc1      IC50          nM               2
2  CC(C)CNC(=S)N1CCC(c2ccc(N(Cc3cnc[nH]3)S(=O)(=O)c3ccccc3)cc2)CC1      IC50          nM               9
3  CC(C)CNC(=S)N1CCN(c2ccc(N(Cc3cnc[nH]3)S(=O)(=O)c3ccccc3)cc2)CC1      IC50          nM               6
4  N#Cc1ccc(Cn2cncc2CN(C(=O)C2CCCCC2)c2ccc(N3CCN(C(=O)c4ccc(Cl)s4)CC3)cc2)cc1      IC50          nM               2
